Subject of test: T1, human plasma kallikrein (human, UniProt P03952 20-390; P03952 391-638)
T1 construct: also called pKal; human pKal
Assay name: ELISA; signal on biotinylated plasma kallikrein divided by signal on streptavidin background
For each record, write down the corresponding ELISA (T/B).
One number for each entry, in T/B ratio.

>  <Binder>
M35-G04 (antibody, V domains shown) VH: EVQLLESGGGLVQPGGSLRLSCAASGFTFSYYHMSWVRQAPGKGLEWVSVISPSGGSTKYADSVKGRFTISRDNSKNTLYLQMNSLRAEDTAVYYCARGGSSDYAWGSYRRPYYFDYWGQGTLVTVSS VL: DIQMTQSPATLSLSPGERATLSCRASQSVSSYLAWYQQKPGQAPRLLIYDASNRATGIPARFSGSGSGTDFTLTISSLEPEDFAVYYCQQRSNWPRGFTFGPGTKVDIK

>  <ELISA (T/B), T/B ratio>
11.1

$$$$
>  <Binder>
M145-D11 (antibody, V domains shown) VH: EVQLLESGGGLVQPGGSLRLSCAASGFTFSHYRMSWVRQAPGKGLEWVSSIYPSGGRTVYADSVKGRFTISRDNSKNTLYLQMNSLRAEDTAVYYCAKDKFEWRLLFRGIGNDAFDIWGQGTMVTVSS VL: QSVLTQPPSVSVSPGQTASITCSGDKLGDKYTSWYQQRPGQSPVLVIYQDIKRPSGIPERFSGSNSGNTATLTISGTQAMDEADYYCQAWDSPNARVFGSGTKVTVL

>  <ELISA (T/B), T/B ratio>
40

$$$$
>  <Binder>
M8-A09 (antibody, V domains shown) VH: EVQLLESGGGLVQPGGSLRLSCAASGFTFSTYFMLWVRQAPGKGLEWVSSIYPSGGNTVYADSVKGRFTISRDNSKNTLYLQMNSLRAEDTAVYYCARAASPVRNYYYYGMDVWGQGTTVTVSS VL: QCELTQPPSESVSPGQTANITCSGDKLGNKYAYWYQQKPGQSPVLVIYQDNNRPSGIPERFSGSNSGNTATLTISGTQAIDEANYYCQAWDSRTVVFGGGTKLTVL

>  <ELISA (T/B), T/B ratio>
5.4

$$$$

Note: attention shifts to another entry.
Need ELISA (T/B) of M38-F02 (antibody, V domains shown) VH: EVQLLESGGGLVQPGGSLRLSCAASGFTFSYYMMVWVRQAPGKGLEWVSYIYSSGGHTVYADSVKGRFTISRDNSKNTLYLQMNSLRAEDTAVYYCARDLFLYDFWSKGAFDIWGQGTMVTVSS VL: QSVLTQPPSVSVSPSQTASITCSGEKLGDKYVSWYQQKPGQSPSLVICEDSRRPSGIPERFSGSNSGNTATLTISGAQPMDEADYYCQAWDSSTAIFGPGTKVTVL , thanks.
33.5
